// endpoint IC50 / system human TREX1 (Homo sapiens (Human), UniProt Q9NSU2)

Below: 6 molecules and their reported IC50.
>  <molecule>
N[C@@H]1C[C@H]2C(=O)N([C@H](CCC(=O)O)C(=O)NCc3ccc(Cl)c(Cl)c3)CCC(CCOc3ccccc3)N2C1 (some centres unmarked)

>  <IC50>
1 to 9.99 µM

$$$$
>  <molecule>
N[C@@H]1C[C@H]2C(=O)N([C@@H]3CCCN(C(=O)c4ccc(Cl)c(Cl)c4)C3)CCC(CCc3ccccc3)N2C1 (some centres unmarked)

>  <IC50>
10 to 100 µM

$$$$
>  <molecule>
COc1ccc(CNC(=O)[C@@H](CC(C)C)N2CCC(CCc3ccccc3)N3C[C@H](N)C[C@H]3C2=O)cc1Cl (some centres unmarked)

>  <IC50>
< 1 µM

$$$$
>  <molecule>
COc1c(CNC(=O)[C@@H](CCC#N)N2CCC(CCc3ccccc3)N3C[C@H](N)C[C@H]3C2=O)ccc(Cl)c1Cl (some centres unmarked)

>  <IC50>
< 1 µM

$$$$
>  <molecule>
N[C@@H]1C[C@H]2C(=O)N([C@H](CCc3nnn[nH]3)C(=O)NCc3ccc(Cl)c(Cl)c3F)CCC(CCc3ccccc3)N2C1 (some centres unmarked)

>  <IC50>
< 1 µM

$$$$
>  <molecule>
COC(=O)CC[C@H](C(=O)NCc1ccc(Cl)cn1)N1CCC(CCc2ccccc2)N2C[C@H](N)C[C@H]2C1=O (some centres unmarked)

>  <IC50>
< 1 µM

$$$$

Q. Recall the reported IC50 of N[C@@H]1C[C@H]2C(=O)N([C@H](CCNS(=O)(=O)C3CC3)C(=O)NCc3ccc(Cl)c(Cl)c3)CCC(CCc3ccccc3)N2C1 (some centres unmarked) on human TREX1 (Homo sapiens (Human), UniProt Q9NSU2) and write it down.
Sequence (Q9NSU2 whole entry): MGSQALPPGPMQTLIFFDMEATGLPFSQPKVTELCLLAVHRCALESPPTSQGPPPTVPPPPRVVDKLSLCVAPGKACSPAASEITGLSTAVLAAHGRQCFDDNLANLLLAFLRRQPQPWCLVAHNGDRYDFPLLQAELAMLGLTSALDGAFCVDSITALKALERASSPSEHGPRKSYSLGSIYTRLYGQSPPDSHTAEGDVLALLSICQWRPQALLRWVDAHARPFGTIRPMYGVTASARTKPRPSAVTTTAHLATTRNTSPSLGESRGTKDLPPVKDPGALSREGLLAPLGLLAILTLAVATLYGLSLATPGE
A. < 1 µM

Q. Supply IC50 measured with human TREX1 (Homo sapiens (Human), UniProt Q9NSU2) for CCOc1c(CNC(=O)[C@@H](CCC(=O)O)N2CCC(CCc3ccccc3)N3C[C@H](N)C[C@H]3C2=O)ccc(Cl)c1Cl (some centres unmarked) .
A. < 1 µM

Q. Report measured IC50 on human TREX1 (Homo sapiens (Human), UniProt Q9NSU2); entry: CC(C)C[C@H](C(=O)NCc1cccc(Cl)c1)N1CCC(CCc2ccccc2)N2C[C@H](N)C[C@H]2C1=O (some centres unmarked)
A. 1 to 9.99 µM

Q. Provide human TREX1 (Homo sapiens (Human), UniProt Q9NSU2) IC50 reading for N[C@@H]1C[C@H]2C(=O)N([C@H](CCNS(=O)(=O)C(F)(F)F)C(=O)NCc3ccc(Cl)c(Cl)c3)CCC(CCc3ccccc3)N2C1 (some centres unmarked) .
A. < 1 µM

Q. Tell me IC50 of N[C@@H]1C[C@H]2C(=O)N([C@H](CCC(=O)O)C(=O)NCc3ccc(Cl)c(C(F)(F)F)c3)CCC(CCc3ccccc3)N2C1 (some centres unmarked) when tested on human TREX1 (Homo sapiens (Human), UniProt Q9NSU2).
A. < 1 µM

* * *

- system name: human TREX1 (Homo sapiens (Human))
measured endpoint: IC50

// worked examples, IC50 included
>  <molecule>
CC(C)Oc1c(CNC(=O)[C@@H](CCC#N)N2CCC(CCc3ccccc3)N3C[C@H](N)C[C@H]3C2=O)ccc(Cl)c1Cl (stereo partly drawn)

>  <system name>
human TREX1 (Homo sapiens (Human))

>  <IC50>
< 1 µM

$$$$
>  <molecule>
NC(=O)CC[C@H](C(=O)N1Cc2cc(Cl)c(Cl)cc2C1)N1CCC(CCc2ccccc2)N2C[C@H](N)C[C@H]2C1=O (stereo partly drawn)

>  <system name>
human TREX1 (Homo sapiens (Human))

>  <IC50>
10 to 100 µM

$$$$

--- query ---
Q. Return reported IC50 for target or system human TREX1 (Homo sapiens (Human)), item CS(=O)(=O)NCC[C@H](C(=O)NCc1ccc(Cl)c(Cl)c1)N1CCC(CCc2ccccc2)N2C[C@H](N)C[C@H]2C1=O (stereo partly drawn) .
A. < 1 µM
